Listed here: items and their measured Thymolytic activity ratio (B).
Test system: thymus gland
Experimental parameters: rat, in vivo, sc, 11520 min
Answer with a number only.

Solved cases below.
CCC(=O)O[C@]1(C(=O)CCl)[C@@H](C)C[C@H]2[C@@H]3CC(=O)C4=CC(=O)C=C[C@]4(C)[C@@]3(F)[C@@H](O)C[C@@]21C [Comparative Example 1, reference compound]    0.29
CCOC(=O)CCCC(=O)O[C@]1(C(=O)CCl)[C@@H](C)C[C@H]2[C@@H]3CCC4=CC(=O)C=C[C@]4(C)[C@@]3(F)[C@@H](O)C[C@@]21C    0.012

Problem: Give the measured Thymolytic activity ratio (B) of "CCCOC(=O)O[C@]1(C(=O)CCl)[C@@H](C)C[C@H]2[C@@H]3CC(=O)C4=CC(=O)C=C[C@]4(C)[C@@]3(F)[C@@H](O)C[C@@]21C" .
Result: 0.24

---

Test system: thymus gland
Experimental parameters: rat, in vivo, sc, 11520 min
Recorded Thymolytic activity ratio (B) by entry
Give your answer as a number; write no unit.

CCC(=O)OCC(=O)[C@@]1(OC(=O)CC)[C@@H](C)C[C@H]2[C@@H]3CCC4=CC(=O)C=C[C@]4(C)[C@@]3(F)[C@@H](O)C[C@@]21C [Betamethasone 17,21-dipropionate, betamethasone 17,21-dipropionate, reference compound]    0.030
COC(=O)CCC(=O)O[C@]1(C(=O)CCl)[C@@H](C)C[C@H]2[C@@H]3CCC4=CC(=O)C=C[C@]4(C)[C@@]3(F)[C@@H](O)C[C@@]21C    0.072
COC(=O)O[C@]1(C(=O)CCl)[C@@H](C)C[C@H]2[C@@H]3CCC4=CC(=O)C=C[C@]4(C)[C@@]3(F)[C@@H](O)C[C@@]21C [Comparative Example 2, reference compound]    1.2
CCOC(=O)CCC(=O)O[C@]1(C(=O)CCl)[C@@H](C)C[C@H]2[C@@H]3CCC4=CC(=O)C=C[C@]4(C)[C@@]3(F)[C@@H](O)C[C@@]21C    0.007

Kindly review the next molecule as well.
Problem: Report Thymolytic activity ratio (B) for CCC(=O)O[C@]1(C(=O)CCl)[C@@H](C)C[C@H]2[C@@H]3CCC4=CC(=O)C=C[C@]4(C)[C@@]3(F)[C@@H](O)C[C@@]21C [Clobetasol 17-propionate, clobetasol 17-propionate, reference compound] please.
Result: 1
